# Tested on: esterase E020
# test.description: Initial screening of ThermoGen esterases toward esters 1-31 (pH indicator), specific activity
# Type: biochemical
# test.settings: 1 mM substrate, pH 7.2, 7 vol % acetonitrile, 25° C.
readout.label: Specific activity, esterase E020

Specific activity, esterase E020 measured on CCCCOC(C)=O [Substrate 25] = 2.0 mmol ester hydrolyzed/min/mg protein

====

# Tested on: esterase E012
# test.description: Initial screening of ThermoGen esterases toward esters 1-31 (pH indicator), specific activity
# Type: biochemical
# test.settings: 1 mM substrate, pH 7.2, 7 vol % acetonitrile, 25° C.
Entries and their Specific activity, esterase E012

Case CCCCCCCCCCCCCC(=O)Oc1ccc2nc3ccc(=O)cc-3oc2c1 [Substrate 6, Resorufin tetradecanoate, reference compound] , esterase E012, Specific activity, esterase E012 recorded as 27 mmol ester hydrolyzed/min/mg protein

---
Log: esterase E012, molecule C=COC(=O)C(C)(C)C [Substrate 11] , Specific activity, esterase E012 = 16 mmol ester hydrolyzed/min/mg protein

Param item: C=COC(=O)CCCCC [Substrate 4] ; param system: esterase E012; output Specific activity, esterase E012: 48 mmol ester hydrolyzed/min/mg protein

Given the molecule CCOC(=O)CN.Cl [Substrate 31] and test system esterase E012, the measured Specific activity, esterase E012 is 6.0 mmol ester hydrolyzed/min/mg protein
